- System: hypervirulent Clostridioides difficile strains
- Assay procedure: MIC against hypervirulent Clostridioides difficile strains
- Format: cell-based
- Stated conditions: CD strain 81
- Experimental: The antibacterial activity of compounds 48, 50, 51, 61 and 85 against a panel of Clostridioides difficile strains was evaluated. A bacterial solution equivalent to 0.5 McFarland standard was prepared and diluted in brain heart infusion broth supplemented with hemin and vitamin K. Compounds and control drugs were added in the first row of 96-well plates and serially diluted with media containing bacteria (to achieve a concentration gradient ranging from 128 to 1 μg/mL). […]

>  <Molecule>
C=C1C(=O)O[C@H](c2ccccc2O)[C@@H]1c1cccc(C#N)c1 (racemic)

>  <Target or system>
hypervirulent Clostridioides difficile strains

>  <Sign>
>

>  <MIC / µg/mL>
128

$$$$
>  <Molecule>
C=C1C(=O)O[C@H](c2ccc(OCc3ccccc3)c(OC(C)=O)c2)[C@@H]1c1ccccc1Br (racemic)

>  <Target or system>
hypervirulent Clostridioides difficile strains

>  <Sign>
=

>  <MIC / µg/mL>
4

$$$$
>  <Molecule>
COc1cc(C2OC(=O)C(CN3CCCCC3)C2c2ccccc2Br)ccc1OCc1ccccc1 (racemic)

>  <Target or system>
hypervirulent Clostridioides difficile strains

>  <Sign>
=

>  <MIC / µg/mL>
2

$$$$
>  <Molecule>
C=C1C(=O)O[C@H](c2c(OC)cc(OC)cc2OC)[C@@H]1c1ccc(C(F)(F)F)cc1 (racemic)

>  <Target or system>
hypervirulent Clostridioides difficile strains

>  <Sign>
=

>  <MIC / µg/mL>
16

$$$$
>  <Molecule>
CC(C)(C)[Si](C)(C)OCCC1OC(=O)C(CN2CCCCC2)C1c1cccc(Br)c1 (racemic)

>  <Target or system>
hypervirulent Clostridioides difficile strains

>  <Sign>
=

>  <MIC / µg/mL>
16

$$$$
>  <Molecule>
C=C1C(=O)OC(CCCCCCCC)C1C=Cc1ccccc1 (racemic)

>  <Target or system>
hypervirulent Clostridioides difficile strains

>  <Sign>
=

>  <MIC / µg/mL>
16

$$$$

Origin of the recorded values: patent US20250195490A1
